This collection of values is drawn from patent US20210071114.

Target: T1, FRET-GGGGG (FRET substrate having pentaglycine between Nma and Lys(Dnp))
T1 chain: GGGGG
MEASURED_METRIC: Specific activity (U/mg)
I only need the number, in U/mg, no unit after it.

Ask: Report Specific activity (U/mg) for β-lytic metalloprotease (beta-lytic metallopeptidase; BLP) (protein) SPNGLLQFPFPRGASWHVGGAHTNTGSGNYPMSSLDMSRGGGWGSNQNGNWVSASAAGSFKRHSSCFAEIVHTGGWSTTYYHLMNIQYNTGANVSMNTAIANPANTQAQALCNGGQSTGPHEHWSLKQNGSFYHLNGTYLSGYRITATGSSYDTNCSRFYLTKNGQNYCYGYYVNPGPN
Result: 186
